Test: Plasma pharmacokinetics, Cycle 1 (LC-MS, non-compartmental)
Format: in vivo, human
Conditions: human, plasma, po, 3 mg, Cycle 1 Day 8; 3 mg daily oral; read-out: AUC0–24 h, Median (range)
Protocol: Blood samples were obtained on Days 1, 2, and 8 of Cycle 1. […] plasma concentrations were measured using liquid chromatography‐mass spectroscopy. Plasma concentration‐time data were analyzed by standard methods using WinNonlin. […] Plasma concentration-time data were analyzed by standard non-compartmental methods using WinNonlin (Pharsight, Mountain View, CA). […] Oral steady-state clearance (ClSS/F) was calculated using the equation, ClSS = Dose/AUCτ.
quantity: AUC(0-t) (ng·h/mL)
State the answer as a number, implicitly in ng·h/mL.

Ask: Would you kindly share the measured AUC(0-t) for `CC(C)n1nc(-c2ccc3oc(N)nc3c2)c2c(N)ncnc21` ?
Reply: 182
